- Measured on: HRgpA-6H (Porphyromonas gingivalis) (UniProt P28784)
- Method: ELISA, coated HRgpA-6H
Measurement label: OD450 nm
Write the value as a bare number.

Solved entries (count: 2):
# Binder, Measurement label, Readout value
measured = [
    ("KB001 mouse Fab VL S32Q (Fab, V domains shown) VH: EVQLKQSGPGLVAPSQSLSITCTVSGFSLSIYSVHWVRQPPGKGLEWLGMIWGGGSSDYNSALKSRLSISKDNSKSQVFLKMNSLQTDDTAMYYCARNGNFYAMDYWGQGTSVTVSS VL: QIVLTQSPAIMSASLGERVTMTCTASSSVSSQFLHWYQQKPGSSPQLWIYSTSNLASGVPARFSGSGSGTSYSLTISSMEAEDAATYYCHQYHHSPYIYTFGGGTKLEIK", "OD450 nm", 0.716),
    ("KB001 mouse Fab VH G53S (Fab, V domains shown) VH: EVQLKQSGPGLVAPSQSLSITCTVSGFSLSIYSVHWVRQPPGKGLEWLGMIWSGGSSDYNSALKSRLSISKDNSKSQVFLKMNSLQTDDTAMYYCARNGNFYAMDYWGQGTSVTVSS VL: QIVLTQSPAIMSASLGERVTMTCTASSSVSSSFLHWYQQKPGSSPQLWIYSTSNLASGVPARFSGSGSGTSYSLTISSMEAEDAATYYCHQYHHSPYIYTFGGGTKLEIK", "OD450 nm", 0.686),
]

Now for a further binder.
Lab book: OD450 nm of KB001 mouse Fab VL S28H (Fab, V domains shown) VH: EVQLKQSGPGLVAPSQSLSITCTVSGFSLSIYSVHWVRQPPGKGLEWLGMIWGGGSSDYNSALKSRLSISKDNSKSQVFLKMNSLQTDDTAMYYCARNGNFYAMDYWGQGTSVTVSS VL: QIVLTQSPAIMSASLGERVTMTCTASSHVSSSFLHWYQQKPGSSPQLWIYSTSNLASGVPARFSGSGSGTSYSLTISSMEAEDAATYYCHQYHHSPYIYTFGGGTKLEIK noted as 0.719
